readout name: logP

Retrieve logP measured for `Cc1ccc2c([N+](=O)[O-])cc[n+]([O-])c2c1` and print it.
1.42

Retrieve logP measured for `COc1cc(Cc2cnc(N)nc2N)ccc1Cl` and print it.
1.87

Retrieve logP measured for `Cn1cnc([N+](=O)[O-])c1S(=O)(=O)Oc1ccccc1` and print it.
1.08

Retrieve logP measured for `O=C1CCC(=O)N1c1cccc(C(F)(F)F)c1` and print it.
1.26

Retrieve logP measured for `COc1cc(C)n(-c2nc(C)cc(C)n2)n1` and print it.
1.82

Retrieve logP measured for `O=S1(=O)NC(c2cccs2)=Nc2ccccc21` and print it.
1.68

Retrieve logP measured for `CCCNc1ccc(C(=O)OCCN(C)C)cc1` and print it.
3.15

Retrieve logP measured for `O=[N+]([O-])C=Cc1ccc([N+](=O)[O-])cc1` and print it.
1.89

Retrieve logP measured for CNC(=O)C(CC(C)C)NC(C)=O (configuration not stated) and print it.
0.14

Retrieve logP measured for `CCCCCCCCOn1c(=O)[nH]c(C)c(Br)c1=O` and print it.
3.39

Retrieve logP measured for `COc1cc(CC(=O)O)ccc1OCCCC(C)C` and print it.
3.3

Retrieve logP measured for CCCC(C)C1(CC)C(=O)NC(=O)N(C)C1=O (configuration not stated) and print it.
2.45

Retrieve logP measured for `N#Cc1cc[n+]([O-])cc1` and print it.
-0.94

Retrieve logP measured for `O=C1C=C(Nc2ccccc2)C(=O)c2ccccc21` and print it.
2.84

Retrieve logP measured for `CON(C)C(=O)Nc1ccc(OCCc2ccccc2)cc1` and print it.
4.5

Retrieve logP measured for CNC(=O)C1CCCN1C(C)=O (configuration not stated) and print it.
-1.19

Retrieve logP measured for `NC(=O)Nc1ccc(Oc2ccc(Br)cc2)cc1` and print it.
3.7

Retrieve logP measured for `O=NN(CCF)C(=O)NC1CCSCC1` and print it.
1.43

Retrieve logP measured for `COc1ccccc1N1C(=O)CCC1=O` and print it.
-0.02

Retrieve logP measured for `Oc1ccc(C(c2ccc(O)cc2)c2nccs2)cc1` and print it.
2.96

Retrieve logP measured for `O=C(CN1CCCCC1)Nc1ccccc1Cl` and print it.
2.76

Retrieve logP measured for `CC(C)Nc1ccccc1C(N)=O` and print it.
2.07

Retrieve logP measured for `CCC(=O)N(C)SN(C)C(=O)ON=C(C)SC` and print it.
1.6

Retrieve logP measured for `CCOC(=O)CCN1C(=O)C=CC1=O` and print it.
0.41

Retrieve logP measured for `Cc1cc(NC(=O)N(C)C)cc(C)c1Br` and print it.
2.92

Retrieve logP measured for O=NN(CCCl)C(=O)NC(CCC(=O)O)C(=O)O (configuration not stated) and print it.
0.6

Retrieve logP measured for `CCN(CC)c1ccc(CO)cc1` and print it.
2.29

Retrieve logP measured for `CCc1c(OC)cc(Cc2cnc(N)nc2N)cc1OC` and print it.
2.72

Retrieve logP measured for `CC(C)NNC(=O)C(C)(C)Oc1ccc(Cl)cc1` and print it.
2.56

Retrieve logP measured for `COc1ccc(Cc2cnc(N)nc2N)cc1I` and print it.
2.09

Retrieve logP measured for `Cc1ccccc1C(=N)c1ccccc1C` and print it.
3.31

Retrieve logP measured for `O=C1CCC(=O)N1c1ccccc1C(F)(F)F` and print it.
0.76

Retrieve logP measured for O=C1CN=C(c2ccccc2F)c2cc(Cl)ccc2N1CC(O)CO (configuration not stated) and print it.
1.51

Retrieve logP measured for OCC1OC(Sc2ccccc2)C(O)C(O)C1O (configuration not stated) and print it.
-0.56

Retrieve logP measured for `Clc1cc(Cl)c(Cl)c(-c2ccc(Cl)c(Cl)c2Cl)c1` and print it.
7.39

Retrieve logP measured for `CC(C)C1=Nc2cc(Cl)ccc2S(=O)(=O)N1` and print it.
2

Retrieve logP measured for O=C1CC2OCCC3CN4CCC56c7ccccc7N1C5C2C3CC46 (configuration not stated) and print it.
1.62

Retrieve logP measured for COCC(O)Cn1cc([N+](=O)[O-])nc1C (configuration not stated) and print it.
-0.36

Retrieve logP measured for C=CCC1(C2=CCCC2)C(=O)NC(=O)N(C)C1=O (configuration not stated) and print it.
1.89

Retrieve logP measured for Cc1ccccc1OC1OC(CO)C(O)C(O)C1O (configuration not stated) and print it.
-0.16

Retrieve logP measured for `CN1CCN(N=O)CC1` and print it.
0.2

Retrieve logP measured for `COc1ccc(Br)c(Cc2cnc(N)nc2N)c1` and print it.
2

Retrieve logP measured for `CCCCCc1nnc(N)o1` and print it.
1.1

Retrieve logP measured for `NNC(=O)c1ccc(O)cc1` and print it.
-0.33

Retrieve logP measured for `COc1cccc(NS(=O)(=O)C(F)(F)F)c1` and print it.
3.13

Retrieve logP measured for `CC1(C)N=C(N)N=C(N)N1c1cccc(C#N)c1` and print it.
-0.24

Retrieve logP measured for C=CCOCC(O)Cn1ccnc1[N+](=O)[O-] (configuration not stated) and print it.
0.4

Retrieve logP measured for NC1CC2CC1c1cc(C(F)(F)F)ccc12 (configuration not stated) and print it.
3.19

Retrieve logP measured for `O=C1C=CC(=NO)c2ccccc21` and print it.
2.27

Retrieve logP measured for `CN(N=O)C(=O)N(C)c1ccccc1` and print it.
1.58

Retrieve logP measured for CNP(=O)(OC)Oc1ccc(Cl)cc1Cl (configuration not stated) and print it.
2.41

Retrieve logP measured for `COc1ccc(Cc2cnc(N)nc2N)cc1Cl` and print it.
1.65

Retrieve logP measured for `NNC(=O)NCc1ccccc1` and print it.
-0.22

Retrieve logP measured for `O=C(COc1ccc(Cl)cc1)NNCc1ccccc1` and print it.
2.92

Retrieve logP measured for `NC(=O)Nc1cnc2ccccc2n1` and print it.
1.3

Retrieve logP measured for `CCNC(=O)CNC(=O)C=[N+]=[N-]` and print it.
-0.62

Retrieve logP measured for `N#Cc1ccc2c(c1)C(c1ccccc1)=NCC(=O)N2` and print it.
1.82
